Data credit: ChEMBL document CHEMBL1157618

target: Caspase-1 (Homo sapiens); assay: Inhibition of human recombinant caspase 1
ASSAY METRIC: IC50 (pM)
Give the quantity in pM, number only.

GET /value?item= CC(C)[C@H](NC(=O)c1ccc2ccccc2c1)C(=O)N[C@@H](C)C(=O)N[C@H](C=O)CC(=O)O &field=IC50 returns 200

* * *

Target: Caspase-1 (Homo sapiens, UniProt P29466)
Sequence (P29466 whole entry): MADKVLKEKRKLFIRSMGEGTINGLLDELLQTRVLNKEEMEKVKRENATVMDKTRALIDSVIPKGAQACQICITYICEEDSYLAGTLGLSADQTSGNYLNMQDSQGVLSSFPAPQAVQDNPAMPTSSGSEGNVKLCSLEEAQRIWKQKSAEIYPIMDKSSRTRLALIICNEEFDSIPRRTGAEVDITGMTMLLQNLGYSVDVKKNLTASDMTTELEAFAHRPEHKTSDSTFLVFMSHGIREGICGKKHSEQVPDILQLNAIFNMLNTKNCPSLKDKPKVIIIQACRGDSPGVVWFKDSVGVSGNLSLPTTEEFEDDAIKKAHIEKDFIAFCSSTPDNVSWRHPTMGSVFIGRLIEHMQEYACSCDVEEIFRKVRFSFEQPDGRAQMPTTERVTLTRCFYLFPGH
Experiment: Inhibition of human recombinant caspase 1
ASSAY METRIC: log10(Ki) (log10 of the value in nM)
Could you please treat all values as log10 of Ki in nM?

1) CC(C)[C@H](NC(=O)c1ccc2ccccc2c1)C(=O)N[C@@H](C)C(=O)N[C@@H](CC(=O)O)CN(C)C1CCCCC1 2.11
2) CC(C)[C@H](NC(=O)c1ccc2ccccc2c1)C(=O)N[C@@H](C)C(=O)N[C@H](CNC1CCCCC1)CC(=O)O 2.98
3) COc1ccccc1CNC[C@H](CC(=O)O)NC(=O)[C@H](C)NC(=O)[C@@H](NC(=O)c1ccc2ccccc2c1)C(C)C 2.98

GET /value?item= CC(C)[C@H](NC(=O)c1ccc2ccccc2c1)C(=O)N[C@@H](C)C(=O)N[C@H](CNCc1ccccc1O)CC(=O)O &field=log10(Ki) returns 1.67

GET /value?item= CC(C)[C@H](NC(=O)c1ccc2ccccc2c1)C(=O)N[C@@H](C)C(=O)N[C@H](CNCc1ccc(C(N)=O)cc1)CC(=O)O &field=log10(Ki) returns 3.26

GET /value?item= CC(C)[C@H](NC(=O)c1ccc2ccccc2c1)C(=O)N[C@@H](C)C(=O)N[C@H](CNCc1ccccc1F)CC(=O)O &field=log10(Ki) returns 3.08
